System: SK-MEL-28
assayProtocol: NCI tumour cell line growth inhibition, 48 h
Active and inactive are the calls of the source. Rule as the data show it: active = GI50 up to about 1.1 µM and inactive = higher. Peptide text beside a SMILES is read from it. * marks the point of attachment. X27 = Clc1c(Cl)c(Cl)c(O*)c(Cl)c1Cl; Boc = CC(C)(C)OC(=O)*; OBn = c1ccc(CO*)cc1; Bn = c1ccc(C*)cc1
measurementName: GI50

Asked: Endpoint output: GI50 of COc1cc(N(Cc2ccc3oc(=O)c(-c4ccccc4)nc3c2)Cc2ccc3oc(=O)c(-c4ccccc4)nc3c2)cc(OC)c1OC . Value?
Given back: > 10 µM (inactive)

Asked: Endpoint output: GI50 of CC(C)CC(NC(=O)C(CCC(=O)OCc1ccccc1)NC(=O)OC(C)(C)C)C(=O)NC(COCc1ccccc1)C(=O)NC(Cc1ccccc1)C(=O)Oc1c(Cl)c(Cl)c(Cl)c(Cl)c1Cl (configuration not stated) (Boc-E(OBn)LS(Bn)F-X27; configuration not given here) . Value?
Given back: 19.2 µM (inactive)

Asked: Endpoint output: GI50 of OCCCCCNc1cc(O)nc(O)n1 . Value?
Given back: > 100 µM (inactive)

Asked: Endpoint output: GI50 of COc1cc(-c2oc3ccccc3c(=O)c2O)cc(OC)c1OC . Value?
Given back: > 100 µM (inactive)

Asked: Endpoint output: GI50 of C[C@@H]1CC[C@H]2[C@H](C)C(OC3O[C@@H]4O[C@@]5(C)CC[C@H]6[C@H](C)CC[C@@H]([C@@H]3C)[C@@]46O5)O[C@@H]3O[C@@]4(C)CC[C@@H]1[C@]32O4 (some centres not stated) . Value?
Given back: > 100 µM (inactive)

Asked: Endpoint output: GI50 of CCCCCCCCCCCCCCCCNC(=O)/C(O)=C/C(=O)c1ccc(C)cc1 . Value?
Given back: > 10 µM (inactive)

Asked: Endpoint output: GI50 of CC1(c2cccc(C3CCC4(C=CC3=O)OCCO4)c2)OCCO1 (configuration not stated) . Value?
Given back: 16 µM (inactive)

* * *

Tested on: DU-145
assayProtocol: NCI tumour cell line growth inhibition, 48 h
Activity calls are given as the source filed them. Cut-off read from the data, not from the text of the source: active = GI50 up to about 1.1 µM and inactive = higher.
measurementName: GI50

Asked: Endpoint output: GI50 of CCOC(=O)c1cc(C2(O)CCN(Cc3ccccc3)C2=O)c(-c2cc(C)no2)[nH]1 (stereo unspecified) . Value?
Given back: 88.9 µM (inactive)

Asked: Endpoint output: GI50 of CCOc1cccc(/C=N\c2ccccc2SSc2ccccc2/N=C\c2cccc(OCC)c2O)c1O . Value?
Given back: 16.6 µM (inactive)

Asked: Endpoint output: GI50 of Cc1ccc2nc(Cl)c(/C=N/N3C(=O)/C(=C/c4ccccc4S)N=C3c3ccccc3)cc2c1 . Value?
Given back: 53.3 µM (inactive)

Asked: Endpoint output: GI50 of CC(NC(=O)/C(=C/c1ccccc1O)NC(=O)c1ccccc1)C(=O)O (stereo unspecified) . Value?
Given back: 45.6 µM (inactive)

Asked: Endpoint output: GI50 of COC(=O)c1cc(Br)c(C(=O)C(Cl)(Cl)Cl)[nH]1 . Value?
Given back: > 100 µM (inactive)

Asked: Endpoint output: GI50 of Cn1cnc2c(OCC3CCCCC3)nc(N)nc21 . Value?
Given back: > 100 µM (inactive)

Asked: Endpoint output: GI50 of COc1ccc(-n2c(=O)n(C)c(=O)n2-c2ccc(OC)cc2)cc1 . Value?
Given back: > 100 µM (inactive)

Asked: Endpoint output: GI50 of CC(C)OC(=O)Nc1cccc(Cl)c1 . Value?
Given back: > 100 µM (inactive)

Asked: Endpoint output: GI50 of O=C(c1cccc(C(=O)c2ccc3c4c(cccc24)C(=O)N(c2ccccc2)C3=O)c1)c1ccc2c3c(cccc13)C(=O)N(c1ccccc1)C2=O . Value?
Given back: > 100 µM (inactive)

Asked: Endpoint output: GI50 of CC1(C)CC(=O)C(C(c2cccc(O)c2O)C2C(=O)CC(C)(C)CC2=O)C(=O)C1 . Value?
Given back: > 100 µM (inactive)

Asked: Endpoint output: GI50 of COC(=O)c1sc2c(c1C(=O)OC)/C(=N/C(C)(C)C)S/C2=N\C(C)(C)C . Value?
Given back: 15.5 µM (inactive)

Asked: Endpoint output: GI50 of S=C(N/N=C(/c1ccccc1)c1ccccn1)Nc1ccccc1Cl . Value?
Given back: 2.31 µM (inactive)

Asked: Endpoint output: GI50 of C=C(CCOC)CCC1CCCCC(CN(C)C)C1=O (stereo unspecified) . Value?
Given back: > 100 µM (inactive)

Asked: Endpoint output: GI50 of Nc1nc(-c2ccccc2/N=N/N2CCCC2)nc2ccccc12 . Value?
Given back: 4.93 µM (inactive)

Asked: Endpoint output: GI50 of CC(=O)N1c2ccccc2C(C)(C)OC1C(Cl)(Cl)Cl (stereo unspecified) . Value?
Given back: 42.1 µM (inactive)

Asked: Endpoint output: GI50 of O=c1ssc2c1Nc1c(ssc1=O)S2 . Value?
Given back: 13.4 µM (inactive)

Asked: Endpoint output: GI50 of CC(C)=CCC[C@]1(C)CC[C@]2(C)C3CCC(=C(C)C)[C@@H](CCCO)[C@]3(C)CC[C@@]2(C)C1 (stereo partly specified) . Value?
Given back: 34 µM (inactive)

Asked: Endpoint output: GI50 of NC(=O)c1csc(C2(O)COC(CO)C2O)n1 (stereo unspecified) . Value?
Given back: > 100 µM (inactive)

Asked: Endpoint output: GI50 of CC(=O)Oc1ccc2c(c1)c1c(=O)oc(N(C)C)nc1n2Cc1ccccc1 . Value?
Given back: > 100 µM (inactive)

Asked: Endpoint output: GI50 of O=c1ccn(C/C=C/c2ccccc2)c(=S)n1C/C=C/c1ccccc1 . Value?
Given back: > 100 µM (inactive)

Asked: Endpoint output: GI50 of C[C@H](CCC(=O)NN)[C@H]1CC[C@H]2[C@@H]3CC[C@@H]4C[C@H](O)CC[C@]4(C)[C@H]3CC[C@]12C . Value?
Given back: > 50.8 µM (inactive)

* * *

Tested on: LOX IMVI
assayProtocol: NCI tumour cell line growth inhibition, 48 h
Activity calls are given as the source filed them. Cut-off read from the data, not from the text of the source: active = GI50 up to about 1.1 µM and inactive = higher.
Answer with one of the outcomes given here: active, inactive

Asked: Can you look up the reported call for CCC1C(=O)OCc2c1cc1n(c2=O)Cc2ccccc2-1 (centres undefined) for me?
Given back: inactive

Asked: Can you look up the reported call for OC(c1cccs1)c1cc2ccccc2s1 (centres undefined) for me?
Given back: inactive

Asked: Can you look up the reported call for NC(=O)NCCSC1CCCCC1O (centres undefined) for me?
Given back: inactive

Asked: Can you look up the reported call for CC(=O)Oc1cc(OC(C)=O)c2c(c1C)CC[C@@H]1[C@@H]2CC[C@]2(C)[C@@H](OC(C)=O)CC[C@@H]12 for me?
Given back: inactive

Asked: Can you look up the reported call for C=CCN1C(=O)/C(=C/c2ccc(OC)cc2)N=C1SC/C=C/C for me?
Given back: inactive

Asked: Can you look up the reported call for C=C(CCOC)CCC1CCCCC(CN(C)C)C1=O (centres undefined) for me?
Given back: inactive

Asked: Can you look up the reported call for COC(=O)c1sc2c(c1C(=O)OC)/C(=N/C(C)(C)C)S/C2=N\C(C)(C)C for me?
Given back: inactive

Asked: Can you look up the reported call for COC(=O)C12OCC34C(CC5C(C)=C(O)C(=O)CC5(C)C3C(O)C1O)OC(=O)C(OC(=O)C=C(C)C)C24 (centres undefined) for me?
Given back: inactive

Asked: Can you look up the reported call for CC(=O)c1c(C)[n+]([O-])c2cc(C)c(C)cc2[n+]1[O-] for me?
Given back: inactive

Asked: Can you look up the reported call for O=C(CC1OC(O)C(Cl)=C1Cl)c1cccnc1 (centres undefined) for me?
Given back: inactive

Asked: Can you look up the reported call for CC(=O)C(=Cc1ccc(C=C(C(C)=O)C(C)=O)cc1)C(C)=O for me?
Given back: active

Asked: Can you look up the reported call for O=C(O[C@H](/C=C/c1ccccc1)P1(=O)N(Cc2ccccc2)[C@@H]2CCCC[C@H]2N1Cc1ccccc1)c1ccccc1 for me?
Given back: inactive

Asked: Can you look up the reported call for CCCCCCCCCCCCCCCC(=O)NCC(OCC)OCC for me?
Given back: inactive

Asked: Can you look up the reported call for O=c1onc2c3ccccc3ncn12 for me?
Given back: inactive

* * *

System: UACC-257
assayProtocol: NCI tumour cell line growth inhibition, 48 h
Calls of active or inactive are those of the source. Rule as the data show it: active = GI50 up to about 1.1 µM and inactive = higher.
Answer with one of the outcomes given here: YES for active, NO for inactive

Asked: Can you look up the reported call for Cc1cn([C@H]2C[C@@H](N3C(=O)c4ccccc4C3=O)[C@@H](CO[Si](C)(C)C(C)(C)C)O2)c(=O)[nH]c1=O for me?
Given back: NO

Asked: Can you look up the reported call for CN(C)CCNC(=O)c1ccc(NCCCN(C)CCCNc2ccc(C(=O)NCCN(C)C)c3nc4ccc([N+](=O)[O-])cc4c(O)c23)c2c(O)c3cc([N+](=O)[O-])ccc3nc12 for me?
Given back: YES

Asked: Can you look up the reported call for S=C1CSc2c(ccc3ccccc23)N1 for me?
Given back: NO

Asked: Can you look up the reported call for CC1(C)CC(=O)C(C(c2cccc(O)c2O)C2C(=O)CC(C)(C)CC2=O)C(=O)C1 for me?
Given back: NO
